- System: T47D
- EXPERIMENT DESCRIPTION: Growth inhibition of human T47D cells after 48 hrs by sulforhodamine B assay
- Format: functional
MEASURED METRIC: GI50
Entry format: amount then unit.

SMILES CODE | GI50
COc1cc(-c2nn(-c3cccc(NC(=O)Nc4cccc(C(F)(F)F)c4)c3)cc2-c2ccncc2)ccc1Cl | 1.65 µM
COc1cc(-c2nn(-c3cccc(NC(=O)c4cccc(C(F)(F)F)c4)c3)cc2-c2ccncc2)ccc1Cl | 2.55 µM
O=C(Nc1cccc(-n2cc(-c3ccncc3)c(-c3ccc(Cl)c(O)c3)n2)c1)Nc1ccc(Cl)c(C(F)(F)F)c1 | 1.12 µM
O=C(Nc1cccc(-n2cc(-c3ccncc3)c(-c3ccc(Cl)c(O)c3)n2)c1)Nc1cc(C(F)(F)F)cc(C(F)(F)F)c1 | 1.82 µM
COc1cc(-c2nn(-c3cccc(NC(=O)c4ccc(N5CCOCC5)c(C(F)(F)F)c4)c3)cc2-c2ccncc2)ccc1Cl | 0.686 µM
O=C(Nc1cccc(-n2cc(-c3ccncc3)c(-c3ccc(Cl)c(O)c3)n2)c1)Nc1cccc(C(F)(F)F)c1 | 2.47 µM
O=C(Nc1cccc(-n2cc(-c3ccncc3)c(-c3ccc(Cl)c(O)c3)n2)c1)Nc1ccc(Cl)c(Cl)c1 | 1.55 µM

Now let's try a different one.
What the record says about COc1cc(-c2nn(-c3cccc(NC(=O)Nc4cc(C(F)(F)F)cc(C(F)(F)F)c4)c3)cc2-c2ccncc2)ccc1Cl : GI50 is 1.55 µM
